B1: POU domain, class 2, transcription factor 1, residues 285 to 354; numbered along this chain, P14859 (parent)
chain: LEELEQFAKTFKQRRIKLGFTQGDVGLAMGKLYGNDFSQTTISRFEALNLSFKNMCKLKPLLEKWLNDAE

# Variants of: B1
# test.details: abundance fitness (aPCA) (normalised: wild type 0, dead -1); higher = more abundant; growth selection in yeast, the domain comes from the species named
# measurement.context: Homo sapiens
reported.property: abundance fitness

sequence.variant | abundance fitness
E63G | -0.023

For every listed record, write down its abundance fitness.
1. N35D
2. Y33C

Result:
1. 0.035
2. -0.04
